Reported % of Normalized, TF/FVIIa/FX complex assay (FX 5 nM), Ab 6.25 nM values for the following binders.
target: recombinant human TFPI (tissue factor pathway inhibitor) (human, UniProt P10646 29-304); test: cell-based or functional assay
A number alone suffices; assume %.

Enquiry: Field request: % of Normalized, TF/FVIIa/FX complex assay (FX 5 nM), Ab 6.25 nM | item: clone 3 (antibody, V domains shown) VH: EVQLVESGGGLVKPGGSLRLSCAASGFTFSSYAMNWVRQAPGKGLEWVGTITTGGSHTYYADSVDGRFTISRDNAKNSLYLQMNSLRAEDTAVYYCARQDGNFLMDYWGQGTLVTVSS VL: DVVMTQTPLSLPVTLGQPASISCKSSPSLLDVDGKTYLNWLQQRPGQSPKRLIYLVSKLDSGVPDRFTGSGSGTDFTLKISRVEAEDVGVYYCWQGTHFPFTFGQGTKVEIKR
Return: 7.2

src = patent US20180030151A1
